System: AR-V7 transcriptional activity
Test protocol: MMTV-LUC luciferase reporter assay in 22RV1 cells, DHT− (screening and IC50)
Format: cell-based
Experimental parameters: Homo sapiens; 22RV1 cells, 10 uM, no DHT; control = 100
Recorded metric: activity at 10 µM (%)
Give just the numeric value; % need not be written.

// query Reported activity at 10 µM for COC(=O)[C@@]12OC[C@]34[C@H]([C@@H](O)[C@@H]1O)[C@@]1(C)CC(=O)C(O)=C(C)[C@@H]1C[C@H]3OC(=O)[C@H](OC(=O)/C=C(\C)C(C)C)[C@@H]24 [Bruceantin, bruceantin] : what is it?
// result 16.4

// query # activity at 10 µM lookup, item O=C(CCc1ccc(O)cc1)c1c(O)cc(O)cc1O[C@@H]1O[C@H](CO)[C@@H](O)[C@H](O)[C@H]1O
// result 154

// query I have this molecule here, C[C@H]1COC2=C1C(=O)C(=O)c1c2ccc2c1CCCC2(C)C , and I need its recorded activity at 10 µM.
// result 70.3

// query Which activity at 10 µM is reported for this molecule? CO[C@H]1O[C@@H]2O[C@@]3(C)CC[C@H]4[C@H](C)CC[C@@H]([C@H]1C)[C@@]24OO3
// result 97.5

// query Given the entry O=C1c2cccc(O)c2C(=O)c2c(O)cccc21 [1,8-Dihydroxyanthraquinone] , report its measured activity at 10 µM.
// result 83.8

// query # get_value(readout='activity at 10 µM', item= CCc1nc(N)nc(N)c1-c1ccc(Cl)cc1 )
// result 130

// query Item COc1ncnc(NS(=O)(=O)c2ccc(N)cc2)c1OC has what recorded activity at 10 µM?
// result 116
